METRIC NAME: melting point

### Prompt Field request: melting point | item: COc1ccc(Cl)cc1NC(=O)[C@@H]1[C@@H](c2ccccc2)C12CCCC2 [Example 6a]
### Response 133 to 135 °C

---

METRIC NAME: melting point

Example results:
[[record]]
molecule = "COc1ccc(Cl)cc1NC(=O)[C@@H]1[C@@H](c2ccc(Br)cc2)C1(C)C (relative stereo) [Example 12c]"
result = "170 to 172 °C"

[[record]]
molecule = "COc1ccc(Cl)cc1NC(=O)[C@@H]1[C@@H](c2cccc(C)c2)C1(C)C (relative stereo) [Example 17a]"
result = "148 to 150 °C"

[[record]]
molecule = "O=C(Nc1ccc(C(F)(F)F)cc1Cl)[C@@H]1[C@@H](c2ccccc2)C12CCCC2 (relative stereo) [Example 15a]"
result = "131 to 133 °C"

[[record]]
molecule = "COc1ccc(NC(=O)[C@@H]2[C@@H](c3ccccc3)C23CCCC3)c(OC)n1 (relative stereo)"
result = "131 to 133 °C"

[[record]]
molecule = "Cc1cnc(NC(=O)[C@@H]2[C@@H](c3ccccc3)C2(C)C)s1 (relative stereo)"
result = "132 to 135 °C"


### Prompt Field request: melting point | item: CC1(C)[C@H](C(=O)Nc2cc(C(F)(F)F)n[nH]2)[C@H]1c1ccccc1 (relative stereo)
### Response 68 to 71 °C

### Prompt What about COc1ccc(Cl)cc1NC(=O)[C@@H]1[C@@H](c2ccc3c(c2)OC(F)(F)O3)C1(C)C (relative stereo) [Example 18d] ?
### Response 120 to 122 °C

---

METRIC NAME: melting point

Example results:
[[record]]
molecule = "COc1ccc(Cl)cc1NC(=O)[C@@H]1[C@@H](c2ccccc2)C1(C)C (relative stereo)"
result = "155 to 157 °C"

[[record]]
molecule = "COc1ccc(Cl)cc1NC(=O)[C@@H]1[C@@H](c2ccc(Cl)cc2)C1(C)C (relative stereo)"
result = "162 to 164 °C"


### Prompt Field request: melting point | item: Cc1cccc([C@@H]2[C@@H](C(=O)Nc3ccc(F)c(F)c3)C2(C)C)c1 (relative stereo) [Example 16d]
### Response 110 to 113 °C

### Prompt What about COc1ncccc1NC(=O)[C@@H]1[C@@H](c2ccccc2)C1(C)C (relative stereo) [Example 13a] ?
### Response 152 to 154 °C

### Prompt What about COc1cc(OC)c(NC(=O)[C@@H]2[C@@H](c3ccccc3)C2(C)C)cc1Cl (relative stereo) ?
### Response 160 to 162 °C

### Prompt What about O=C(Nc1ccc(C(F)(F)F)cc1)[C@@H]1[C@@H](c2ccccc2)C12CCCC2 (relative stereo) ?
### Response 171 to 173 °C

// data source = patent US9062013B2
